Listed next: entries and their corresponding pKd.
- measurement target: T1, recombinant human CD40 (ECD)-his (human, UniProt P25942 21-193)
- T1 construct: Bought protein; also called hCD40(ECD)-his; TNFRSF5
- T1 sequence (P25942 21-193): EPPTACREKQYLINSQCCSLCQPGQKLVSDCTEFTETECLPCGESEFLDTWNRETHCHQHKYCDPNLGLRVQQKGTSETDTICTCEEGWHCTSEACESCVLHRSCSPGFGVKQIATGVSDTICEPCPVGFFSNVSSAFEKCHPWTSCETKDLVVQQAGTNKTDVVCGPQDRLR
- assay explanation: SPR (Biacore 8K), hCD40(ECD)-his coupled to chip, antibody injected
Reminder that pKd means the negative base-10 logarithm of the concentration expressed in mol/L.

Field: example entries. Status: answers known.
{"binder": "7B4-VH2VL2 (antibody, V domains shown, Humanized, human IgG2/kappa; also called 7B4H2L2) VH: QVQLQESGPGLVKPSDTLSLTCAVSGYSITTNYYWNWIRQPPGKGLEWMGYIKYDGSNNYNPSLKNRITISVDTSKNQFSLKLSSVTAVDTAVYYCARLDYWGQGTLVTVSS VL: DVVLTQSPLSLPVTLGQPASISCRSSQSLENSNGNTFLNWFQQRPGQSPRLLIYKVSNRFSGVPDRFSGSGSGTDFTLKISRVEAEDVGVYYCLQVTHVPFTFGQGTKLEIKR", "quantity": "pKd", "recorded value": 8.54}
{"binder": "13A2-VH3VL2 (antibody, human IgG2, kappa, V domains shown, Humanized, human IgG2/kappa) VH: QVQLQESGPGLVKPSDTLSLTCAVSGYSITTNYYWNWIRQPPGNKLEWMGYINYDGSNNYNPSLKNRITISVDTSKNQFSLKLSSVTAVDTAVYYCARLDYWGQGTLVTVSS VL: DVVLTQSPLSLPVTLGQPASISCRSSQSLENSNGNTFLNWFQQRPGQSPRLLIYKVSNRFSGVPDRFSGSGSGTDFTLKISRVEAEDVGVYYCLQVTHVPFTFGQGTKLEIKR", "quantity": "pKd", "recorded value": 8.53}

Next binder, please.
Field request: pKd | item: 13A2-VH2VL3 (antibody, human IgG2, kappa, V domains shown, Humanized, human IgG2/kappa) VH: QVQLQESGPGLVKPSDTLSLTCAVSGYSITTNYYWNWIRQPPGKGLEWMGYINYDGSNNYNPSLKNRITISVDTSKNQFSLKLSSVTAVDTAVYYCARLDYWGQGTLVTVSS VL: DVVLTQSPLSLPVTLGQPASISCRSSQSLENSNGNTFLNWFQQRPGQSPRLLIYKVSNRFSGVPDRFSGSGSGTDFTLKISRVEAEDVGVYFCLQVTHVPFTFGSGTKLEIKR
8.45
